TARGET OR TEST SYSTEM: mMC5R (Mus musculus, UniProt P41149)
Sequence (P41149 whole entry): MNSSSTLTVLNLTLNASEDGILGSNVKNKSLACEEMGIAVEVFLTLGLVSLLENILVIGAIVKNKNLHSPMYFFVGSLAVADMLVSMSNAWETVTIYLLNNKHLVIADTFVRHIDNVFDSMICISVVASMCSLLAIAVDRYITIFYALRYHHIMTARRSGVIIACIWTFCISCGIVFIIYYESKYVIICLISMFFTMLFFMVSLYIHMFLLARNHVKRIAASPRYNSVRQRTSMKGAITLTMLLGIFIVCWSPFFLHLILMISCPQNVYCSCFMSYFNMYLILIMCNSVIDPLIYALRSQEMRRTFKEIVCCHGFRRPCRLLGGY
Type: cell-based
ASSAY CONTEXT: 100 μM; no plateau
Entries and their mMC5R percent decrease in receptor activity compared to basal at 100 μM
API: value field is a number in % @ 100 μM; no unit string.

Check out these entries, answers already filled in.
COMPOUND | UOM | NUMBER
CCCC[C@@H]1NC(=O)[C@H](C)NC(=O)[C@H](CC(N)=O)NC(=O)[C@H](Cc2ccccc2)NC(=O)[C@H](Cc2ccccc2)NC(=O)[C@H](CCCNC(=N)N)NC(=O)[C@@H]2CCCN2C(=O)[C@H]2CCCN2C1=O [Compound 7, c[Pro-Arg-Phe-Phe-Asn-Ala-Nle-DPro]] | % @ 100 μM | −35
CC(C)C[C@@H]1NC(=O)[C@H](C)NC(=O)[C@H](CC(N)=O)NC(=O)[C@H](Cc2ccccc2)NC(=O)[C@H](Cc2ccccc2)NC(=O)[C@H](CCCNC(=N)N)NC(=O)[C@@H]2CCCN2C(=O)[C@H]2CCCN2C1=O [Compound 6, c[Pro-Arg-Phe-Phe-Asn-Ala-Leu-DPro]] | % @ 100 μM | −35
C[C@@H]1NC(=O)[C@H](CC(N)=O)NC(=O)[C@H](Cc2ccccc2)NC(=O)[C@H](Cc2ccccc2)NC(=O)[C@H](CCCNC(=N)N)NC(=O)[C@@H]2CCCN2C(=O)[C@H]2CCCN2C(=O)[C@H](Cc2ccc(O)cc2)NC1=O [Compound 9, c[Pro-Arg-Phe-Phe-Asn-Ala-Tyr-DPro]] | % @ 100 μM | −40

Briefly, mMC5R percent decrease in receptor activity compared to basal at 100 μM measured for C[C@@H]1NC(=O)[C@H](CC(N)=O)NC(=O)[C@H](Cc2ccccc2)NC(=O)[C@H](Cc2ccccc2)NC(=O)[C@H](CCCNC(=N)N)NC(=O)[C@@H]2CCCN2C(=O)[C@H]2CCCN2C(=O)CNC1=O [Compound 2, c[Pro-Arg-Phe-Phe-Asn-Ala-Gly-DPro]] : −25

GET /value?item= C[C@@H]1NC(=O)[C@H](CC(N)=O)NC(=O)[C@H](Cc2ccccc2)NC(=O)[C@H](Cc2ccccc2)NC(=O)[C@H](CCCNC(=N)N)NC(=O)[C@@H]2CCCN2C(=O)[C@H]2CCCN2C(=O)[C@H](CO)NC1=O [Compound 3, c[Pro-Arg-Phe-Phe-Asn-Ala-Ser-DPro]] &field=mMC5R percent decrease in receptor activity compared to basal at 100 μM returns −55

###

TARGET OR TEST SYSTEM: mMC5R (Mus musculus, UniProt P41149)
Assay type: cell-based
ASSAY CONTEXT: 100 μM; no plateau
METRIC NAME: mMC5R percent decrease in receptor activity compared to basal at 100 μM (% @ 100 μM)
Just the number please, in % @ 100 μM, no unit attached.

Per the record, C[C@@H]1NC(=O)[C@H](CC(N)=O)NC(=O)[C@H](Cc2ccccc2)NC(=O)[C@H](Cc2ccccc2)NC(=O)[C@H](CCCNC(=N)N)NC(=O)[C@@H]2CCCN2C(=O)[C@H]2CCCN2C(=O)[C@H](CCCCN)NC1=O [Compound 4, c[Pro-Arg-Phe-Phe-Asn-Ala-Lys-DPro]] has mMC5R percent decrease in receptor activity compared to basal at 100 μM of −40
